# System: NCI-H226 lung
# assayNotes: NCI tumour cell line growth inhibition, 48 h
Readings of TGI for the listed compounds
observationType: TGI

[[record]]
compound = "CC(C)COC(=O)N1N=NC2C3OC(CC3=O)C21 (stereo unspecified)"
observationtype = "TGI"
result = "> 100 µM"

[[record]]
compound = "O=C1c2ccccc2-c2nccc3cc(Cl)nc1c23"
observationtype = "TGI"
result = "> 81.5 µM"

[[record]]
compound = "COc1cccc2c1C1(O)C2CCCC12OCCCO2 (stereo unspecified)"
observationtype = "TGI"
result = "> 100 µM"

[[record]]
compound = "Cc1nc2cncc(C#Cc3cncc(C(=O)Nc4ccc(CN5CCN(C)CC5)c(C(F)(F)F)c4)c3)c2nc1C"
observationtype = "TGI"
result = "4.19 µM"

[[record]]
compound = "NC(c1ccccc1)(C(F)(F)F)P1(=O)OC(=O)c2ccccc2O1 (stereo unspecified)"
observationtype = "TGI"
result = "> 100 µM"

[[record]]
compound = "CCOC(=O)c1cc2c(n1Cc1cc(OC)cc(OC)c1)-c1oncc1CCC2"
observationtype = "TGI"
result = "> 100 µM"


* * *

# System: RPMI-8226 leukemia
# assayNotes: NCI tumour cell line growth inhibition, 48 h
observationType: TGI (µM)

[[record]]
compoundstructurestring = "CCN(CC)c1ccc(N=C2C=C(C(=O)Nc3ccc(S(C)(=O)=O)cc3)C(=O)c3ccccc32)c(C)c1"
valuequalifier = ">"
quantitativeresult = 100

[[record]]
compoundstructurestring = "COc1ccc(/C=C(\\C(=C/c2ccc(OC)cc2)[N+](=O)[O-])[N+](=O)[O-])cc1"
valuequalifier = "="
quantitativeresult = 13

[[record]]
compoundstructurestring = "O=C(Cn1c(=O)c(-c2ccccc2)nc2ccccc21)c1cccnc1"
valuequalifier = ">"
quantitativeresult = 100

[[record]]
compoundstructurestring = "Cc1cc(=O)n2nc(CSc3nnc(N)s3)sc2n1"
valuequalifier = ">"
quantitativeresult = 100

[[record]]
compoundstructurestring = "O=C1c2ccccc2-c2nccc3cc(Cl)nc1c23"
valuequalifier = "="
quantitativeresult = 3.35

[[record]]
compoundstructurestring = "CC(=N\\O)/C(C)=N/O.CC(=N\\O)/C(C)=N/O.CC(=N\\O)/C(C)=N/O.CC(=N\\O)/C(C)=N/O.[Cu].[Cu]"
valuequalifier = "="
quantitativeresult = 63.7


* * *

# System: UO-31 renal
# assayNotes: NCI tumour cell line growth inhibition, 48 h; in the data active = GI50 below about 0.43 µM; inactive = the rest
Classes used: active, inactive

[[record]]
molecule = "CCN(CC)c1ccc(N=C2C=C(C(=O)Nc3ccc(S(C)(=O)=O)cc3)C(=O)c3ccccc32)c(C)c1"
assignedclass = "inactive"

[[record]]
molecule = "Cc1nc2cncc(C#Cc3cncc(C(=O)Nc4ccc(CN5CCN(C)CC5)c(C(F)(F)F)c4)c3)c2nc1C"
assignedclass = "active"

[[record]]
molecule = "N#Cc1cccc(C(=O)c2cnn(-c3ccc(F)cc3)c2N)c1"
assignedclass = "inactive"

[[record]]
molecule = "O=C(Nc1ncc(Cc2ccccc2)s1)c1ccc2c(c1)OCCCO2"
assignedclass = "inactive"

[[record]]
molecule = "Nc1nc2c(c3ncccc13)C(c1ccc(Cl)c(Cl)c1)Cc1ncccc1-2 (centres undefined)"
assignedclass = "inactive"

[[record]]
molecule = "COc1ccc(C(O)c2cc3c(N)c(C(=O)Nc4cccc(Cl)c4C)sc3nc2C)cc1 (centres undefined)"
assignedclass = "inactive"

[[record]]
molecule = "N#Cc1c2ccccc2c2n1-c1ccccc1OC(c1ccccc1)C2=O (centres undefined)"
assignedclass = "inactive"

[[record]]
molecule = "COc1cc(N=Nc2ccccc2)cc(/C=N\\[N-]C(N)=S)c1[O-].COc1cc(N=Nc2ccccc2)cc(/C=N\\[N-]C(N)=S)c1[O-].[Fe+4]"
assignedclass = "inactive"

[[record]]
molecule = "CC(=N\\O)/C(C)=N/O.CC(=N\\O)/C(C)=N/O.CC(=N\\O)/C(C)=N/O.CC(=N\\O)/C(C)=N/O.[Cu].[Cu]"
assignedclass = "inactive"


* * *

# Test system: HT29 colon
# assayNotes: NCI tumour cell line growth inhibition, 48 h
Readings of TGI for the listed compounds
observationType: TGI

[[record]]
compound = "CCCC(CC)c1c(O)c(O)c(C(CC)CCC)c(C(CC)CCC)c1C(CC)CCC (centres undefined)"
subjectoftest = "HT29 colon"
observationtype = "TGI"
result = "> 10 µM"

[[record]]
compound = "ON(CCc1ccncc1)Cc1ccccc1"
subjectoftest = "HT29 colon"
observationtype = "TGI"
result = "> 100 µM"

[[record]]
compound = "COc1cc(C(=O)/C=C/c2c(-c3ccc(F)cc3)nc3sc(C)cn23)cc(OC)c1OC"
subjectoftest = "HT29 colon"
observationtype = "TGI"
result = "> 100 µM"

[[record]]
compound = "COCN1CCN=c2c1c1c3c(c4ccccc4n23)CCC1"
subjectoftest = "HT29 colon"
observationtype = "TGI"
result = "> 100 µM"

[[record]]
compound = "COc1ccc(Nc2ncccc2/C=C/C(=O)c2cc(OC)c(OC)c(OC)c2)cc1"
subjectoftest = "HT29 colon"
observationtype = "TGI"
result = "3.16 µM"

[[record]]
compound = "C[C@H](CC[C@@H](O)C(C)(C)O)[C@H]1CC[C@@]2(C)[C@@H]3CC=C4[C@@H](CC[C@H](O)C4(C)C)[C@]3(C)C(=O)C[C@]12C"
subjectoftest = "HT29 colon"
observationtype = "TGI"
result = "> 50 µM"

[[record]]
compound = "O=c1[nH]c(=O)n(COCc2ccccc2)c2ccc([N+](=O)[O-])cc12"
subjectoftest = "HT29 colon"
observationtype = "TGI"
result = "> 100 µM"

[[record]]
compound = "CC1CCC2(NC1)OC1CC3[C@@H]4CC=C5C=CCC[C@]5(C)C4CC[C@]3(C)C1C2C (some centres undefined)"
subjectoftest = "HT29 colon"
observationtype = "TGI"
result = "32.1 µM"

[[record]]
compound = "O=S1(=O)N(Cc2ccccc2)[C@@H](Cc2ccccc2)C2O[C@H]2[C@H](Cc2ccccc2)N1Cc1ccccc1 (some centres undefined)"
subjectoftest = "HT29 colon"
observationtype = "TGI"
result = "> 7.5 µM"


* * *

Readings of log10 of TGI for the listed molecules
# Test system: SW-620 colon
# assayNotes: NCI tumour cell line growth inhibition, 48 h
Where a SMILES comes first, the peptide text is derived from it. The star is where a group is joined. Boc = CC(C)(C)OC(=O)*
observationType: log10 of TGI (log10 of the value in µM)

[[record]]
molecule = "COc1ccc(/C=C(\\C(=C/c2ccc(OC)cc2)[N+](=O)[O-])[N+](=O)[O-])cc1"
quantitativeresult = 0.90

[[record]]
molecule = "Nc1nc2c(c3ncccc13)C(c1ccc(Cl)c(Cl)c1)Cc1ncccc1-2 (stereo unspecified)"
quantitativeresult = 1.28

[[record]]
molecule = "CCN(CC)CCOc1ccc(Nc2ncc3cc(-c4c(Cl)cccc4Cl)c(=O)n(CCOC)c3n2)cc1"
quantitativeresult = 0.77

[[record]]
molecule = "c1cc(C2CCCCC2)ccc1OCCCCCCN1CCNCC1"
quantitativeresult = 0.53

[[record]]
molecule = "CCN(CC)c1ccc(N=C2C=CC(=O)c3ncccc32)c(C)c1"
quantitativeresult = 0.85

[[record]]
molecule = "CCOC(=O)c1c2c(n(-c3ccc(OC)cc3)c1C)C(=O)C(=O)c1ccccc1-2"
quantitativeresult = 0.91

[[record]]
molecule = "OCc1cccc(-c2ccc3ncc(-c4nc(NC5CC5)ncc4F)n3c2)c1"
quantitativeresult = -0.01

[[record]]
molecule = "C[C@@H]1COCCN1c1nc(-c2cnc(N)cc2C(F)F)nc(N2[C@H](C)COC[C@@H]2C)n1"
quantitativeresult = 1.11

[[record]]
molecule = "COC(=O)C(Cc1c[nH]c2ccccc12)NC(=O)C(Cc1c[nH]c2ccccc12)NC(=O)C(Cc1c[nH]c2ccccc12)NC(=O)C(Cc1c[nH]c2ccccc12)NC(=O)OC(C)(C)C (stereo unspecified) (Boc-WWWW-OMe; configuration not given here)"
quantitativeresult = 1.80

[[record]]
molecule = "CC1CC[C@@]2(OC1)O[C@H]1C[C@H]3[C@@H]4CC[C@H]5C[C@@H](OC6OC(CO)C(OC7OC(CO)C(OC8OC(CO)C(O)C(OC9OC(C)C(OC%10OC(C)C(O)C(O)C%10O)C(O)C9O)C8OC8OCC(O)C(O)C8O)C(O)C7O)C(O)C6O)CC[C@]5(C)[C@H]4CC(=O)[C@]3(C)[C@H]1[C@@H]2C (stereo partly specified)"
quantitativeresult = 1.62

[[record]]
molecule = "O=C1c2ccccc2-c2c1c1ccc([N+](=O)[O-])cc1c(=O)n2CCNCCCNCCn1c2c(c3ccc([N+](=O)[O-])cc3c1=O)C(=O)c1ccccc1-2"
quantitativeresult = 0.75

[[record]]
molecule = "COC(=O)c1nc(-c2ccc3c(n2)C(=O)C(N)=C(OC)C3=O)c(N)c(-c2ccc(OC)c(OC)c2O)c1C"
quantitativeresult = 0.84

[[record]]
molecule = "O=Nc1c(-c2cccc([N+](=O)[O-])c2)nc2cnccn12"
quantitativeresult = 1.55

[[record]]
molecule = "CN(C)/C=C/c1nnnn1-c1ccc(Cl)cc1"
quantitativeresult = 1.70

[[record]]
molecule = "S=C1C(=Nc2ccccc2)N(c2ccccc2)/C(=N\\c2ccccn2)N1c1ccccc1"
quantitativeresult = 1.45

[[record]]
molecule = "C=C1C(=O)O[C@H]2[C@H]1CC/C(CNC(=O)/C=C/c1cccc(OC)c1)=C\\CC[C@@]1(C)O[C@@H]21"
quantitativeresult = 0.37

